Tested on: MALME-3M melanoma
Assay: NCI-60 one-dose screen, 48 h (100 = growth as untreated, 0 = no growth, -100 = all killed)
Conditions: 10 µM unless noted
Compounds without any hit were thinned out: in the full panel of roughly 83,000, 20% have a hit.
observable: growth (%)
The reply should be a number in %, with the unit left off.

Task: Fill in growth for record CC(=O)c1ccc(Nc2nccc(-c3ccc(Cl)cc3)n2)cc1
Output: 101

Task: Provide one value: measured growth of Fc1ccc(/C=C/c2cc(/C=C/c3ccc(F)cc3)n(-c3cc(F)cc(F)c3)n2)cc1
Output: 98.1

Task: Give growth for the following compound: COC(=O)[C@@H](Cc1c[nH]c2ccccc12)NC(=O)[C@H](Cc1ccccc1)NCc1ccncc1
Output: 86.5

Task: Give growth for COc1cc(/C=C/c2cc(/C=C/c3ccc(O)c(OC)c3)n(C(=O)Nc3ccc(C)cc3C)n2)ccc1O
Output: -21.7

Task: Find the measured growth of COc1cccc(C2C(C#N)=C(N)Oc3c2ccc2ccccc32)c1 (stereo not given) and report it.
Output: 54.4

Task: Input O=C(/C=C/c1ccc(Cl)cc1)c1ccc(Nc2ccnc3cc(Cl)ccc23)cc1 , output reported growth.
Output: 79.9

Task: Give a short answer stating reported growth for Cc1ccc(S(=O)(=O)c2nc(-c3ccccc3)oc2S(C)=O)cc1 (stereo not given) .
Output: -76.8

Task: Provide only the value of recorded growth for FC(F)(F)c1cccc(-c2nnn(Cc3cc(-c4cccc(Cl)c4)no3)n2)c1
Output: 97.5

Task: Answer with the recorded growth for the compound listed here: COc1cc2c(cc1OC)CC[N+](CCC[N+](C)(C)C)=C2
Output: 89

Task: Please give the documented growth of O=C(NC1CCCCCC1)c1ccc2c(=O)n3c(nc2c1)CCCCC3
Output: 91.1
